Recorded measurements of pEC50, one per entry
# target_entity: PRMT5-MEP50 enzyme complex (Homo sapiens)
# Construct: Full-length (FL)-PRMT5-MEP50 enzyme complex (recombinant proteins from baculovirus-transfected Sf21 cells: FL-PRMT5; MW=73837 kDa and FL-MEP50; MW=38614); made in house; host or cells: baculovirus-transfected Sf21 cells
# Sequence (O14744 whole entry): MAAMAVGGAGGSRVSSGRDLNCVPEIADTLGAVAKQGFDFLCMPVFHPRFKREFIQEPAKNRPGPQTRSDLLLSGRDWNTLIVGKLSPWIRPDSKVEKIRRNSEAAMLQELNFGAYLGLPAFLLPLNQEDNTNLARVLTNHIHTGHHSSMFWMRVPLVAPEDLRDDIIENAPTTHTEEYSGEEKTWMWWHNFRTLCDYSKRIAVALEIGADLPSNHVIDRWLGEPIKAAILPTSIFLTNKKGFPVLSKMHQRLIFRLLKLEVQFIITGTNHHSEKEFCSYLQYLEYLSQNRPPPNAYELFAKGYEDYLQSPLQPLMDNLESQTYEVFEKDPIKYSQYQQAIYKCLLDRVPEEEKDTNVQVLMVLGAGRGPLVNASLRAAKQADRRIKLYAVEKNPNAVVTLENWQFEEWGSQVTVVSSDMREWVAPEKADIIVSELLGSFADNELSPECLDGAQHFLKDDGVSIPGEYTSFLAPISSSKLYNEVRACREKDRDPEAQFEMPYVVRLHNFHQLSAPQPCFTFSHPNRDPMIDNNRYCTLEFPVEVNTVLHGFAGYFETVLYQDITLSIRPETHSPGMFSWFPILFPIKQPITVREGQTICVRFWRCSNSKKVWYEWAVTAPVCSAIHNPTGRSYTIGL
# Sequence (Q9BQA1 whole entry partner): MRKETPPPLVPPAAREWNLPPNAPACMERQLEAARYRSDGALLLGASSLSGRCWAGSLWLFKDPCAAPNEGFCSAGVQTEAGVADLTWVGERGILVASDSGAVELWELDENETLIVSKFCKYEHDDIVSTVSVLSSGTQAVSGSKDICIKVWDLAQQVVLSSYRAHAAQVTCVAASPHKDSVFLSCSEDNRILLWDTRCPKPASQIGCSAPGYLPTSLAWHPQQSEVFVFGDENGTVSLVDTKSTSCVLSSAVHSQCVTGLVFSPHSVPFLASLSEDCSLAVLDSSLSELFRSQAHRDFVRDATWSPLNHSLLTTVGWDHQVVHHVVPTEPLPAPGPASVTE
# protocol: PRMT5-MEP50 Enzyme Methylation Assay (Version B)
# Assay type: biochemical
# applied_conditions: first of two EC50s: 7 parameters biphasic model; read-out: Enzyme Methylation Assay Version B (EC50_1)
pEC50: −log10 of the molar value.
result_type: pEC50

1) O=C(c1cn2c(n1)CCC(C(F)(F)F)C2)N1CC[C@H](N2CCc3ccccc3C2)[C@@H](O)C1 (single isomer, unassigned) [Example 82] : ~8.10
2) CC1(C)OC(=O)Nc2cc(C(=O)N3CC[C@@H](N4CCc5ccccc5C4)[C@H](O)C3)ccc21 : ~6.93
3) CC1(C)CC(=O)Nc2cc(C(=O)N3CC[C@@H](N4CCc5ccccc5C4)[C@H](O)C3)ccc21 : ~7.21
4) O=C(c1ccc(C(=O)N2C3CCC2COC3)cc1)N1CC[C@@H](N2CCc3ccccc3C2)[C@H](O)C1 : ~6.26
5) CC1(C)CC(=O)Nc2cc(C(=O)N3CC[C@H](N4CCc5ccccc5C4)[C@@H](O)C3)ccc21 : ~7.85
6) CC(=O)N1CCC(Nc2cc(C(=O)N3CC[C@@H](N4CCc5ccccc5C4)[C@H](O)C3)c(F)cn2)CC1 : ~7.12

###

# target_entity: PRMT5-MEP50 enzyme complex (Homo sapiens)
# Construct: Full-length (FL)-PRMT5-MEP50 enzyme complex (recombinant proteins from baculovirus-transfected Sf21 cells: FL-PRMT5; MW=73837 kDa and FL-MEP50; MW=38614); made in house; host or cells: baculovirus-transfected Sf21 cells
# protocol: PRMT5-MEP50 Enzyme Methylation Assay (Version A)
# Format: biochemical
# applied_conditions: first of two EC50s: 7 parameters biphasic model; read-out: Enzyme Methylation Assay Version A (EC50_1)
Recorded measurements of EC50, one per entry
result_type: EC50

1. N#CC1(c2ccc3nc(C(=O)N4CC[C@H](N5CCc6ccccc6C5)[C@@H](O)C4)cn3c2)CC1 [Example 125] : ~58 nM
2. O=C(c1cn2cc(Br)c(O)nc2n1)N1CC[C@H](N2CCc3ccccc3C2)[C@@H](O)C1 [Example 70] : ~45 nM
3. CC(=O)N1CCC(Nc2nccc(C(=O)N3CC[C@H](N4CCc5ccccc5C4)[C@@H](O)C3)c2F)CC1 [Example 18] : ~3 nM
4. CC(=O)N1CCC(Nc2cc(C(=O)N3CCC(N4CCc5ccccc5C4)C(O)C3(C)C)ccn2)CC1 (single isomer, unassigned) [Example 23] : ~36 nM
5. O=C(c1ccnc(OC(F)F)c1)N1CC[C@H](N2CCc3ccccc3C2)[C@@H](O)C1 [Example 53] : ~28 nM

###

# target_entity: PRMT5-MEP50 enzyme complex (Homo sapiens)
# Construct: Full-length (FL)-PRMT5-MEP50 enzyme complex (recombinant proteins from baculovirus-transfected Sf21 cells: FL-PRMT5; MW=73837 kDa and FL-MEP50; MW=38614); made in house; host or cells: baculovirus-transfected Sf21 cells
# protocol: PRMT5-MEP50 Enzyme Methylation Assay (Version A)
# Type: biochemical
# applied_conditions: only one EC50 shown: 4 parameters single site sigmoidal model; 60 min pre-incubation with SAM; read-out: Enzyme Methylation Assay Version A (EC50)
# if measured EC50 < 0.9 nM: true  # else: false

1. CO[C@H](C)c1cc(C(C)C)cn2cc(C(=O)N3CC[C@H](N4CCc5ccccc5C4)[C@@H](O)C3)nc12 [Example 58] : true
2. CC1(C)CC1(C#N)c1cnc2nc(C(=O)N3CC[C@H](N4CCc5ccccc5C4)[C@@H](O)C3)cn2c1 (single isomer, unassigned) [Example 128] : true
3. CC(=O)N1C2CCC1CC(Nc1cc(C(=O)N3CC[C@H](N4CCc5ccccc5C4)[C@@H](O)C3)c(F)cn1)C2 (stereo partly drawn) [Example 122] : false
4. O=C(c1cn2cc(Br)ccc2n1)N1CC[C@H](N2CCc3ccccc3C2)[C@@H](O)C1 (single isomer, unassigned) [Example 1] : false
5. Cn1nccc1-c1cnc2nc(C(=O)N3CC[C@H](N4CCc5ccccc5C4)[C@@H](O)C3)cn2c1 [Example 57] : false
6. CC(=O)N1CC[C@@H](CNc2cc(C(=O)N3CC[C@H](N4CCc5ccccc5C4)[C@@H](O)C3)c(F)cn2)C1 [Example 123] : false
7. O=C(c1cn2cc(Br)cc(I)c2n1)N1CC[C@H](N2CCc3ccccc3C2)[C@@H](O)C1 [Example 139] : false
8. O=C(c1cn2cc(Br)cnc2n1)N1CC[C@H](N2CCc3ccccc3C2)[C@@H](O)C1 [Example 71] : false
9. O=C(c1cn2cc(Br)c(C3CC3)nc2n1)N1CC[C@H](N2CCc3ccccc3C2)[C@@H](O)C1 [Example 78] : true
10. O=C1Nc2cc(C(=O)N3CC[C@H](N4CCc5ccccc5C4)[C@@H](O)C3)ccc2OC1C1CC1 (single isomer, unassigned) [Example 80] : true
11. COC(=O)N1CCC(Nc2cc(C(=O)N3CC[C@H](N4CCc5ccccc5C4)[C@@H](O)C3)c(F)cn2)CC1 [Example 109] : false
